# tested_target: estrogen receptor alpha (ESR1) (Homo sapiens)
# method_summary: cell-based
The reader will find reported EC50 values listed item by item below.
Expressed in nM, but write only the number.

CS(=O)(=O)c1ccc(-c2ccc3cc(O)ccc3c2C(=O)c2ccc(OCCN3CC[C@@H](CF)C3)cc2)cc1 : 0.414

Task: Please look up its EC50: `Oc1cccc([C@@H]2Sc3c(ccc(O)c3F)O[C@@H]2c2ccc(OCCN3CC(CF)C3)cc2)c1`
Result: 15.8

Task: Please look up its EC50: `O=C(c1ccc(OCCN2CC(CF)C2)c(F)c1)c1c(-c2ccccc2Cl)noc1-c1ccc(O)cc1`
Result: 0.3

Task: Please look up its EC50: Oc1ccc2c(c1)CC[C@H](c1ccccc1)[C@@H]2c1ccc(OCCN2CC(CF)C2)cc1 (racemic)
Result: 0.016

Task: Please look up its EC50: `CS(=O)(=O)c1ccc(-c2ccc3c(F)c(O)ccc3c2Oc2ccc(OCCN3CC[C@@H](CF)C3)cc2)cc1`
Result: 0.072

====

# tested_target: estrogen receptor alpha (ESR1) (Homo sapiens, UniProt P03372)
# Sequence (P03372 whole entry): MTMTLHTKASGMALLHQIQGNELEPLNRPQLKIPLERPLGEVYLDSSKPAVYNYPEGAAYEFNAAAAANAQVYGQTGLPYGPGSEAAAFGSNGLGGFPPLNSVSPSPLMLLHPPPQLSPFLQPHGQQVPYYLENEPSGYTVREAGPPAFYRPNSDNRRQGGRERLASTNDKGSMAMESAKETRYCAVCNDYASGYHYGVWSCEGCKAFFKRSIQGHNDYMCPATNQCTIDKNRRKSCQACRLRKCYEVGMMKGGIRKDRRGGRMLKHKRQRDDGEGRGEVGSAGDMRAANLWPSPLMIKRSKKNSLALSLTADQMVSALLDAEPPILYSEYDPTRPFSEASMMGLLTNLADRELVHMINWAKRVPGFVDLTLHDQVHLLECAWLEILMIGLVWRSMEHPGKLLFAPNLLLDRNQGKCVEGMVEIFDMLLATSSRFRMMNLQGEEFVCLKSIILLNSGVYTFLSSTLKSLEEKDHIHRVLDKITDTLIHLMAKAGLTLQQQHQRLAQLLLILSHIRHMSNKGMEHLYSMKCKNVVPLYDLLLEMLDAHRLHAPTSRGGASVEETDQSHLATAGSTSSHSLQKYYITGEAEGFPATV
# method_summary: cell-based
# protocol_conditions: MCF7 breast cancer cells, 4 hours; plateau of the maximal effect; DMSO and Fulvestrant define 0% and 100% changes in ESR1
metric: ER-alpha MCF7 HCS Sinf (%)
Expressed in %, but write only the number.

Worked cases, answers included:
Oc1ccc([C@H]2Sc3cc(O)ccc3O[C@H]2c2ccc(OCCN3CC[C@@H](CF)C3)cc2)cc1 (racemic) [Example 28] : −97
CC/C(=C(/c1ccc(OCCN2CC(CF)C2)cc1)c1ccc2[nH]ncc2c1)c1ccccc1 [Example 25] : −92
CC/C(=C(/c1ccc(OCCN2CC(CF)C2)cc1)c1ccc2[nH]ncc2c1)c1ccc(F)cc1Cl [Example 82] : −96.9
Oc1ccc([C@H]2Sc3cc(O)ccc3O[C@H]2c2ccc(OCCN3CC(CF)C3)cc2)cc1 (racemic) [Example 29] : −101
Cc1c(-c2ccc(F)cc2)n(Cc2ccc(OCCN3CC(CF)C3)cc2)c2ccc(O)cc12 [Example 3] : −92
Oc1ccc(-c2sc3cc(O)ccc3c2Oc2ccc(OCCN3CC(CF)C3)cc2)cc1 [Example 11] : −94
O=C(C1=C(c2ccc(O)cc2)CCc2cc(O)ccc21)c1ccc(OCCN2CC(CF)C2)cc1 [Example 32] : −101
Cc1c(-c2ccc(O)cc2Cl)n(Cc2ccc(OCCN3CC(CF)C3)cc2)c2ccc(O)cc12 [Example 47] : −94.1

Task: Please look up its ER-alpha MCF7 HCS Sinf: Oc1cccc([C@@H]2Sc3c(ccc(O)c3F)O[C@@H]2c2ccc(OCCN3CC(CF)C3)cc2)c1 [Example 60]
Result: −91.9

Task: Please look up its ER-alpha MCF7 HCS Sinf: O=C(c1ccc(OCCN2CC(CF)C2)c(F)c1)c1c(-c2ccccc2Cl)noc1-c1ccc(O)cc1 [Example 17]
Result: −102

Task: Please look up its ER-alpha MCF7 HCS Sinf: FC[C@@H]1CCN(CCOc2ccc(/C(=C(\c3ncc(C(F)(F)F)cc3Cl)C3CCC3)c3ccc4[nH]nc(F)c4c3)cc2)C1 [Example 27]
Result: −73

====

# tested_target: estrogen receptor alpha (ESR1) (Homo sapiens, UniProt P03372)
# method_summary: cell-based
# protocol_conditions: MCF7 breast cancer cells, 4 hours; plateau of the maximal effect; DMSO and Fulvestrant define 0% and 100% changes in ESR1
The reader will find reported ER-alpha MCF7 HCS Sinf values listed item by item below.
Expressed in %, but write only the number.

Worked cases, answers included:
CC/C(=C(\c1ccccc1)c1ccc(OCCN2CC(CF)C2)cc1)c1ccccc1 : −97
CS(=O)(=O)c1ccc(-c2ccc3cc(O)ccc3c2C(=O)c2ccc(OCCN3CC[C@@H](CF)C3)cc2)cc1 : −97.6
Cc1c(-c2ccccc2)n(Cc2ccc(OCCN3CC(CF)C3)cc2)c2ccccc12 : −81

Read the next record carefully.
Task: Please look up its ER-alpha MCF7 HCS Sinf: `Cc1c(-c2ccc(O)cc2)n(Cc2ccc(OC[C@H](C)N3CC[C@@H](CF)C3)cc2)c2ccc(O)cc12`
Result: −93

====

The reader will find reported ER-alpha MCF7 HCS Sinf values listed item by item below.
# tested_target: estrogen receptor alpha (ESR1) (Homo sapiens, UniProt P03372)
# method_summary: cell-based
# protocol_conditions: MCF7 breast cancer cells, 4 hours; plateau of the maximal effect; DMSO and Fulvestrant define 0% and 100% changes in ESR1
Expressed in %, but write only the number.

Worked cases, answers included:
CS(=O)(=O)c1ccc(-c2ccc3cc(O)ccc3c2Oc2ccc(OCCN3CC(CF)C3)cc2)cc1 [Example 7] : −95
Cc1cc(F)ccc1-c1sc2cc(O)ccc2c1C(=O)c1ccc(OCCN2CC(CF)C2)cc1 [Example 38] : −96

Task: Please look up its ER-alpha MCF7 HCS Sinf: Oc1ccc2c(c1)C1=C(c3cc(O)ccc3OCC1)[C@H](c1ccc(OCCN3CC(CF)C3)cc1)O2 [Example 74]
Result: −93.3

Task: Please look up its ER-alpha MCF7 HCS Sinf: O=C(c1ccc(OCCN2CC(CF)C2)c(F)c1)c1c(-c2ccccc2Cl)nsc1-c1ccc(O)cc1 [Example 72]
Result: −99.0

====

The reader will find reported ER-alpha MCF7 HCS Sinf values listed item by item below.
# tested_target: estrogen receptor alpha (ESR1) (Homo sapiens, UniProt P03372)
# method_summary: cell-based
# protocol_conditions: MCF7 breast cancer cells, 4 hours; plateau of the maximal effect; DMSO and Fulvestrant define 0% and 100% changes in ESR1
Expressed in %, but write only the number.

C[C@@H](COc1ccc([C@@H]2Oc3ccc(O)cc3S[C@@H]2c2ccc(O)cc2)cc1)N1CC[C@@H](CF)C1 (mixture of isomers) : −99
CC/C(=C(\c1ccc(O)cc1)c1ccc(OC[C@H](C)N2CC[C@@H](CF)C2)cc1)c1ccccc1 : −58
COc1ccc(/C(=C(\c2ccc(OCCN3CC[C@@H](CF)C3)cc2)c2ccc3[nH]nc(F)c3c2)C2CCC2)c(Cl)c1 : −75

Task: Please look up its ER-alpha MCF7 HCS Sinf: `Cc1c(-c2ccc(O)cc2Cl)n(Cc2ccc(OC[C@H](C)N3CC[C@@H](CF)C3)cc2)c2ccc(O)cc12`
Result: −95.6

====

# tested_target: estrogen receptor alpha (ESR1) (Homo sapiens, UniProt P03372)
# method_summary: cell-based
# protocol_conditions: MCF7 breast cancer cells, 4 hours; plateau of the maximal effect; DMSO and Fulvestrant define 0% and 100% changes in ESR1
metric: ER-alpha MCF7 HCS Sinf (%)
Expressed in %, but write only the number.

Worked cases, answers included:
Cc1cc(-c2c(C)c3cc(O)ccc3n2Cc2ccc(OCCN3CC(CF)C3)cc2)ccc1O [Example 41] : −97.8
Oc1ccc2c(c1)O[C@H](c1ccc(OCCN3CC(CF)C3)cc1)C1=C2CCOc2ccc(O)cc21 [Example 77] : −84.5
Oc1ccc2c(c1)C1=C(c3cc(O)ccc3OCC1)[C@@H](c1ccc(OCCN3CC(CF)C3)cc1)O2 [Example 75] : −99.7

Read the next record carefully.
Task: Please look up its ER-alpha MCF7 HCS Sinf: Cc1c(-c2ccc(O)c(F)c2)n(Cc2ccc(OC[C@H](C)N3CC[C@@H](CF)C3)cc2)c2ccc(O)cc12 [Example 45]
Result: −97.5

====

# tested_target: estrogen receptor alpha (ESR1) (Homo sapiens)
# method_summary: cell-based
# protocol_conditions: MCF7 breast cancer cells, 4 hours; plateau of the maximal effect; DMSO and Fulvestrant define 0% and 100% changes in ESR1
# Procedure: Where more than one name is associated with a Formula I compound or intermediate, the chemical structure shall define the compound. Cell plates were incubated at 37° C., for 4 hours. Fixation and permeabilization were carried out using a Biotek EL406 plate washer and dispenser as follows. […] Samples were incubated 30 minutes. […] Quantitative fluorescence imaging of ESR1 was carried out using a Cellomics Arrayscan V (Thermo). […]
The reader will find reported ER-alpha MCF7 HCS Sinf values listed item by item below.
Expressed in %, but write only the number.

Worked cases, answers included:
CC/C(=C(\c1ccc(O)cc1)c1ccc(OCCN2CC[C@@H](CF)C2)cc1)c1ccccc1 [Example 22] : −83
Cc1cc(-c2sc3cc(O)ccc3c2C(=O)c2ccc(OCCN3CC(CF)C3)cc2)ccc1F [Example 36] : −97
Cc1cc(-c2c(C)c3cc(O)ccc3n2Cc2ccc(OCCN3CC[C@@H](CF)C3)cc2)ccc1O [Example 42] : −97.5
Oc1ccc(-c2onc(-c3ccccc3Cl)c2-c2ccc(OCCN3CC(CF)C3)cc2)cc1 [Example 14] : −99
Oc1ccc2c(c1)CC[C@H](c1ccccc1)[C@@H]2c1ccc(OCCN2CC(CF)C2)cc1 (racemic) [Example 34] : −99.3

Task: Please look up its ER-alpha MCF7 HCS Sinf: CS(=O)(=O)c1ccc(-c2ccc3c(F)c(O)ccc3c2Oc2ccc(OCCN3CC[C@@H](CF)C3)cc2)cc1 [Example 79]
Result: −89.6

Task: Please look up its ER-alpha MCF7 HCS Sinf: O=C(c1ccc(OCCN2CC[C@@H](CF)C2)c(F)c1)c1c(-c2ccccc2Cl)noc1-c1ccc(O)cc1 [Example 73]
Result: −97.6
